Molecular target: CDK2 (Homo sapiens)
Test: CDK2 assay (histone H1 phosphorylation, 32P-ATP filter assay)
Assay type: biochemical
Conditions: concentration required to inhibit CDK2 activity by 50%; histone H1, 30 μM ATP, 30° C., 30 min; read-out: IC50 (μg/mL) enzyme (converted)
Label true (1) when IC50 < 1 µM; otherwise false (0).

Here's what some known entries look like.
Compound | Class name
CC(C)n1cnc2c(Nc3cccc(-c4ccc(C#N)cc4)c3)nc(N(CCO)CCO)nc21 | false (0)
COc1ccc(CNc2nc(Cl)nc3c2ncn3CCCCl)cc1 | false (0)

Strictly below 1 µM in IC50? `CC(C)n1cnc2c(NCc3ccc(-c4ccccn4)cc3)nc(N(CCO)CCO)nc21`
true (1)

Strictly below 1 µM in IC50? CC(C)n1cnc2c(NCc3ccc(-c4ccccc4)cc3)nc(NCC(O)CO)nc21 (stereo not shown)
false (0)

Strictly below 1 µM in IC50? `COc1ccc(CNc2nc(N(CCO)CCO)nc3c2ncn3CCO)cc1`
false (0)

Strictly below 1 µM in IC50? `COc1ccc(CNc2nc(N3CC=CC3)nc3c2ncn3C(C)C)cc1`
false (0)

Strictly below 1 µM in IC50? COc1ccc(CNc2nc(Cl)nc3c2ncn3C)cc1 [R1=4-methoxybenzylamino; R2=Me; R3=Cl]
false (0)

Strictly below 1 µM in IC50? `CC(C)n1cnc2c(NCc3ccc(-c4cccs4)cc3)nc(N(CCO)CCO)nc21`
false (0)

Strictly below 1 µM in IC50? `CC(C)[C@@H](CO)Nc1nc(NCc2ccc(Cl)cc2)c2ncn(C(C)C)c2n1`
true (1)

Strictly below 1 µM in IC50? `CSc1cccc(Nc2nc(N(CCO)CCO)nc3c2ncn3C(C)C)c1`
true (1)

====

Biological target: CDK2 (Homo sapiens, UniProt P24941)
Test: CDK2 assay (histone H1 phosphorylation, 32P-ATP filter assay)
Assay type: biochemical
Settings: concentration required to inhibit CDK2 activity by 50%; histone H1, 30 μM ATP, 30° C., 30 min; read-out: IC50 (μg/mL) enzyme (converted)
Experimental readout: IC50 (µM)
Respond with the bare value in µM.

Answered examples (5):
Compound | Target entity | IC50 (µM)
COc1ccc(CNc2nc(NCC(O)CN)nc3c2ncn3C(C)C)cc1 (stereo not shown) | CDK2 (Homo sapiens, UniProt P24941) | 1.56
COc1ccc(CNc2nc(NCCO)nc3c2ncn3C(C)C)cc1 | CDK2 (Homo sapiens, UniProt P24941) | 11.2
CC(=O)C(C)n1cnc2c(NCc3ccc(Cl)cc3)nc(N(CCO)CCO)nc21 (stereo not shown) | CDK2 (Homo sapiens, UniProt P24941) | 85.5
CC(C)n1cnc2c(NCc3ccc(Cl)cc3)nc(N[C@@H](C)CO)nc21 | CDK2 (Homo sapiens, UniProt P24941) | 0.694
COc1ccc(CNc2nc(NCCO)nc3c2ncn3C)cc1 | CDK2 (Homo sapiens, UniProt P24941) | 12.2

Entry `CC(C)n1cnc2c(NCc3ccc(Cl)cc3)nc(NCCN)nc21` — recorded IC50 = 0.973

Entry `CC(C)[C@H](CO)Nc1nc(NCc2ccc(F)cc2)c2ncn(C(C)C)c2n1` — recorded IC50 = 0.155

Entry `CC(C)n1cnc2c(NCc3ccc(F)cc3)nc(NC[C@@H](C)O)nc21` — recorded IC50 = 0.642

Entry `CC(C)[C@@H](CO)Nc1nc(NCc2ccc(F)cc2)c2ncn(C(C)C)c2n1` — recorded IC50 = 0.492

Entry `CC(C)n1cnc2c(Nc3ccc(-c4ccccc4)cc3)nc(N(CCO)CCO)nc21` — recorded IC50 = 1.39

Entry `CC(C)n1cnc2c(NCc3ccc(Cl)cc3)nc(NC[C@@H](N)Cc3ccccc3)nc21` — recorded IC50 = 2.38

Entry `COc1ccc(CNc2nc(N(CCO)CCO)nc3c2ncn3C)cc1` — recorded IC50 = 10.7

Entry `CC(C)n1cnc2c(NCC3CCCCC3)nc(Cl)nc21` — recorded IC50 = 3.25

Entry `CC(C)n1cnc2c(NCc3ccc(Cl)cc3)nc(N[C@H](C)CO)nc21` — recorded IC50 = 0.934

Entry `CC(C)n1cnc2c(NCc3ccc(F)cc3)nc(NC[C@H](C)O)nc21` — recorded IC50 = 0.614

====

Test system: PupVSMC rat neonatal aortic smooth muscle cells
Assay: Cell proliferation assay, PupVSMC
Assay type: cell-based
Details: Rat neonatal aortic smooth muscle cells, Table 9; the values are: IC50
As shown below, each of these compounds has a reported inhibitory activity, Pup VSMC value.
Respond with the bare value in µg/mL.

Answered examples (3):
Compound | Experimental readout | Value
CC(N)CNc1nc(NCc2ccc(Cl)cc2)c2ncn(C(C)C)c2n1 (stereo not shown) | inhibitory activity, Pup VSMC | 0.1
CC(C)n1cnc2c(NCc3ccc(Cl)cc3)nc(N(CCO)CCO)nc21 | inhibitory activity, Pup VSMC | 0.3
CC(C)n1cnc2c(NCc3ccc(Cl)cc3)nc(NCCN)nc21 | inhibitory activity, Pup VSMC | 0.1

Turning now to a further compound:
Entry `CC(C)n1cnc2c(NCc3ccc(Cl)cc3)nc(N(CCN)CCO)nc21` ; assay system PupVSMC rat neonatal aortic smooth muscle cells; inhibitory activity, Pup VSMC recorded at 0.3

====

Biological target: CDK2 (Homo sapiens)
Test: CDK2 assay (histone H1 phosphorylation, 32P-ATP filter assay)
Type: biochemical
Details: concentration required to inhibit CDK2 activity by 50%; histone H1, 30 μM ATP, 30° C., 30 min; read-out: IC50 (μg/mL) enzyme (converted)
Experimental readout: IC50 (µM)
Respond with the bare value in µM.

Answered examples (5):
Molecule | Experimental readout | Value
CC(C)n1cnc2c(NCc3ccc(-c4ccccc4)cc3)nc(N(CCO)CCO)nc21 | IC50 | 1.34
COc1ccc(CNc2nc(N3CCCC(O)C3)nc3c2ncn3C(C)C)cc1 (stereo not shown) | IC50 | 2.52
COc1ccc(CNc2nc(N(CCO)Cc3ccccc3)nc3c2ncn3C(C)C)cc1 | IC50 | 2.24
COc1ccc(CNc2nc(N(CC(C)O)CC(C)O)nc3c2ncn3C(C)C)cc1 (stereo not shown) | IC50 | 1.87
CC(C)n1cnc2c(NCc3ccc(-c4ccc(C(F)(F)F)cc4)cc3)nc(N(CCO)CCO)nc21 | IC50 | 1.17

Entry `Cc1ccc(-c2ccc(CNc3nc(N(CCO)CCO)nc4c3ncn4C(C)C)cc2)cc1` — recorded IC50 = 1.3

Entry `CSc1ccc(Nc2nc(Cl)nc3c2ncn3C(C)C)cc1` — recorded IC50 = 1.8

Entry `COc1cccc(CNc2nc(N(CCO)CCO)nc3c2ncn3C(C)C)c1` — recorded IC50 = 1.25

Entry `CC(C)n1cnc2c(NCc3ccc(Cl)cc3)nc(NCCCN)nc21` — recorded IC50 = 2.67

====

Biological target: CDK2 (Homo sapiens)
Assay: CDK2 assay (histone H1 phosphorylation, 32P-ATP filter assay)
Assay type: biochemical
Details: concentration required to inhibit CDK2 activity by 50%; histone H1, 30 μM ATP, 30° C., 30 min; read-out: IC50 (μg/mL) enzyme (converted)
As shown below, each of these molecules has a reported IC50 value.

Answered examples (4):
Molecule | IC50
COc1ccc(CNc2nc(Cl)nc3c2ncn3Cc2ccccc2)cc1 | > 158000 nM
CC(C)n1cnc2c(NCc3ccc(Cl)cc3)nc(N[C@@H](Cc3ccccc3)C(N)=O)nc21 | 2310 nM
CC(C)[C@H](CO)Nc1nc(NCc2ccc(Cl)cc2)c2ncn(C(C)C)c2n1 | 472 nM
COc1cccc(CNc2nc(Cl)nc3c2ncn3C(C)C)c1 | 2710 nM

Turning now to a further molecule:
Entry CC(CO)Nc1nc(NCc2ccc(F)cc2)c2ncn(C(C)C)c2n1 (centres unmarked) — recorded IC50 = 502 nM

====

Biological target: CDK2 (Homo sapiens)
Test: CDK2 assay (histone H1 phosphorylation, 32P-ATP filter assay)
Format: biochemical
Settings: concentration required to inhibit CDK2 activity by 50%; histone H1, 30 μM ATP, 30° C., 30 min; read-out: IC50 (μg/mL) enzyme (converted)
Label Yes when IC50 < 1000 nM; otherwise No.

Strictly below 1000 nM in IC50? `FC(F)(F)n1cnc2c(NCc3ccc(Cl)cc3)nc(Cl)nc21`
No

Strictly below 1000 nM in IC50? `COc1ccc(CNc2nc(N(CCO)CCO)nc3c2ncn3C(F)(C(F)(F)F)C(F)(F)F)cc1`
No

Strictly below 1000 nM in IC50? `CC(C)n1cnc2c(NCc3ccc(F)cc3)nc(NC[C@@H]3CCCO3)nc21`
No

Strictly below 1000 nM in IC50? `CC(C)n1cnc2c(NCc3ccc(Cl)cc3)nc(N(CCO)CCO)nc21`
Yes

Strictly below 1000 nM in IC50? CC(C)n1cnc2c(NCc3ccc(Cl)cc3)nc(NCC(O)c3ccccc3)nc21 (stereo not shown)
Yes

Strictly below 1000 nM in IC50? `CC(C)n1cnc2c(Nc3ccccc3)nc(Cl)nc21`
No

Strictly below 1000 nM in IC50? `CC(C)n1cnc2c(NCc3ccc(F)cc3)nc(N(CCO)CCO)nc21`
Yes

Strictly below 1000 nM in IC50? `CC(C)n1cnc2c(NCc3ccc(Cl)cc3)nc(NC[C@@H](C)O)nc21`
No

Strictly below 1000 nM in IC50? `CSc1ccc(Nc2nc(N(CCO)CCO)nc3c2ncn3C(C)C)cc1`
Yes

Strictly below 1000 nM in IC50? `CC(C)n1cnc2c(NCc3ccc(Cl)cc3)nc(NCCCCCN)nc21`
No

Strictly below 1000 nM in IC50? `OCCNc1nc(NCc2ccccc2)nc2[nH]cnc12`
No

Strictly below 1000 nM in IC50? `COc1ccc(CNc2nc(Cl)nc3c2ncn3C(C)C)cc1`
No

Strictly below 1000 nM in IC50? `COc1ccc(CNc2nc(Cl)nc3c2ncn3C(F)(C(F)(F)F)C(F)(F)F)cc1`
No

Strictly below 1000 nM in IC50? CC(=O)C(C)n1cnc2c(NCc3ccc(F)cc3)nc(N(CCO)CCO)nc21 (stereo not shown)
No

Strictly below 1000 nM in IC50? `COc1ccc(CNc2nc(Cl)nc3c2ncn3CCCC#N)cc1`
No

Strictly below 1000 nM in IC50? CC(N)CNc1nc(NCc2ccc(F)cc2)c2ncn(C(C)C)c2n1 (stereo not shown)
No

Strictly below 1000 nM in IC50? `CC(C)n1cnc2c(NCc3ccc4c(c3)OCO4)nc(N(CCO)CCO)nc21`
No

Strictly below 1000 nM in IC50? `CC(C)n1cnc2c(NCc3ccc(F)cc3)nc(NC[C@H]3CCCO3)nc21`
No
